Source: patent US20250250357A1

Subject Of Test: T1, human MSLN-FL-his protein (human, UniProt Q13421 296-580)
T1 construct: made in HEK293E cells, purified on nickel column; also called hMSLN-FL-his; human MSLN full-length protein; not shown: His tag
Protocol Text: competitive ELISA; row Tab107 (conformation); note: test concentration or dose not given here
Below is a list of entries, each paired with its recorded competition rate value.
Please state the value followed by its unit.

Worked examples follow.
• Tab107 (YP3, hIgG1) (antibody, V domains shown, Control antibody; VH and VL recombined into human IgG1 CH and CL expression vectors; also called YP3 human IgG1 antibody) VH: QEQLVESGGGLVQPGASLTLTCTASGIDFSRYYMCWVRQAPGKGLEGIACIYIGGSGSTYYASWAKGRFTISKASSTTVTLQMTSLTAADTATYFCARGTNLNYIFRLWGPGTLVTVSS VL: DVVMTQTPSPVSAAVGGTVTIKCQASQSINNGLAWYQQKPGQPPRLLIYSASNLESGVPSRFKGSGSGTEFTLTISDLECDDAATYYCQCIWDGNSYVNAFGGGTEVVVRT = 94%
• S009-F2.58.8 (antibody, human IgG1, kappa, V domains shown, human-murine chimeric antibody, human IgG1/kappa constant regions) VH: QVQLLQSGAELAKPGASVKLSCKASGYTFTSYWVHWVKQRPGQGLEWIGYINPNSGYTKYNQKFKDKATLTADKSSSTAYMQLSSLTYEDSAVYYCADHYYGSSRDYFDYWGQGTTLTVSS VL: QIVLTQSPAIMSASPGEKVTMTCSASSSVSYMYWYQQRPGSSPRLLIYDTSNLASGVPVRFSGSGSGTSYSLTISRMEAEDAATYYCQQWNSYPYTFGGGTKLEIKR = -6%

Now for a further binder.
Problem: Need competition rate of S009-F2.13.3 (antibody, human IgG1, kappa, V domains shown, human-murine chimeric antibody, human IgG1/kappa constant regions) VH: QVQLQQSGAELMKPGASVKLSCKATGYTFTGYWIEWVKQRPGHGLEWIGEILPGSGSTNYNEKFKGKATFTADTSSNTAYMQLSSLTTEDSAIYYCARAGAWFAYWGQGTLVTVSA VL: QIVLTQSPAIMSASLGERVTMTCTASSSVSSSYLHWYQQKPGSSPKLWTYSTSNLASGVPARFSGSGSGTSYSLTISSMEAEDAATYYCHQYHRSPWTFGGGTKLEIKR , thanks.
Solution: -54%
